target: VLA-4 (α4β1 integrin) binding to immobilized VCAM-1 (Homo sapiens, UniProt P05556+P13612); construct: followed by 10 μl of Ramos cell-derived VLA-4; endogenous in cells; assay: VLA-4/VCAM-1 Screening Assay (solid-phase, dual antibody ELISA); conditions: Ramos cell-derived VLA-4, recombinant human VCAM-1 coated plates, 1 mM MnCl2
Sequence (P13612 34-1032): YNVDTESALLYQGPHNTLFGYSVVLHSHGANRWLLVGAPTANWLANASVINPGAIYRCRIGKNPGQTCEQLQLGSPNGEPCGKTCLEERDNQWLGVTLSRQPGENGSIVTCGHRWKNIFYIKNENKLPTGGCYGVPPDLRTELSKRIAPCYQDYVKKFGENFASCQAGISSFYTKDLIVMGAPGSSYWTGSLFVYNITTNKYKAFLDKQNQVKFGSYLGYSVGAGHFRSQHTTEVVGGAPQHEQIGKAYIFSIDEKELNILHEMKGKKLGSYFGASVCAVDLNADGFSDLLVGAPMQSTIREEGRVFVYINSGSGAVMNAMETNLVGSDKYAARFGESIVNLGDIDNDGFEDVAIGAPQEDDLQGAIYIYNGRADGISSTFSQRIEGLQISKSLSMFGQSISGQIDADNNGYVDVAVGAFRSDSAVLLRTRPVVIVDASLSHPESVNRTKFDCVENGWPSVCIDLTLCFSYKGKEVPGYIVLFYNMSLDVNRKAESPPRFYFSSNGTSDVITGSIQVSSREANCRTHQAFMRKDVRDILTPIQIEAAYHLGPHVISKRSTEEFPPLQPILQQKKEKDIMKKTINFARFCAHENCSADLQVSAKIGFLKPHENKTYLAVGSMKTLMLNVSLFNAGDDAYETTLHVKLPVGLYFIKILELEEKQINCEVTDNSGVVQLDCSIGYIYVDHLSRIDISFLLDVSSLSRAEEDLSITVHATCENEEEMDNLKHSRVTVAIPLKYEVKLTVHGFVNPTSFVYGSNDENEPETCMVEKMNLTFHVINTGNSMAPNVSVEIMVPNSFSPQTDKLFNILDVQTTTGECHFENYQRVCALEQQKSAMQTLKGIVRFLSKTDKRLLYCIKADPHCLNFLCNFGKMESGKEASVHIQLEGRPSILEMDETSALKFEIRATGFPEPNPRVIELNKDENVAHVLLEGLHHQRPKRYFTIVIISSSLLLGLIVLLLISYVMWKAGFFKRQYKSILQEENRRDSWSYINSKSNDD
Sequence (P05556 21-798): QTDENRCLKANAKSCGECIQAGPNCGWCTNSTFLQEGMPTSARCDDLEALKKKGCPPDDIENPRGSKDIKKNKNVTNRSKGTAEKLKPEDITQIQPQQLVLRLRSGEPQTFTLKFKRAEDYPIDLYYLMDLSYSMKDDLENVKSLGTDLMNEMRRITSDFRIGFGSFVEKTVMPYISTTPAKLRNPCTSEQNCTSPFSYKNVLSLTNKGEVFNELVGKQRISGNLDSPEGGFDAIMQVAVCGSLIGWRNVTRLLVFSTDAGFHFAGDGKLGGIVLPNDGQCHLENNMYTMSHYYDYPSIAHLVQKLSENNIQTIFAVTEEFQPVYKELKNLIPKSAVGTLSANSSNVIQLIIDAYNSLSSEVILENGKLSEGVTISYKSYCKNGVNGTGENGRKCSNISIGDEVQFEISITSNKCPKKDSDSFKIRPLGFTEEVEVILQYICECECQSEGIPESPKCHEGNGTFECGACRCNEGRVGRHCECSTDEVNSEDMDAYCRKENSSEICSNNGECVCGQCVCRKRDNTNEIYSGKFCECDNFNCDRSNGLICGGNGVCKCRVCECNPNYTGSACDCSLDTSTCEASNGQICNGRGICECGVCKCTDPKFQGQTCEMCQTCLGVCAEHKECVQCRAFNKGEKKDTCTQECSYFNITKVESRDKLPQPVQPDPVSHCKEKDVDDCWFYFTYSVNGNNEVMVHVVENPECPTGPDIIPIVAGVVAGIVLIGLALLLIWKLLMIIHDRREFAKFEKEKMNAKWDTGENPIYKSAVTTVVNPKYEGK
Readout Type: IC50

>>> test_result("COCCC1(C(=O)N[C@@H](Cc2ccc(-c3cc(Cl)cn(C)c3=O)cc2)C(=O)O)CCCC1 [Example 10]")
"< 10 nM"
>>> test_result("COc1ccc(Br)c(C(=O)N[C@@H](Cc2ccc(-c3cc(Br)cn(C)c3=O)cc2)C(=O)O)c1 [Example 28]")
"< 1 nM"
>>> test_result("Cc1cccc(Cl)c1C(=O)N[C@@H](Cc1ccc(-c2cc(Cl)cn(Cc3ccccc3)c2=O)cc1)C(=O)O [Example 15]")
"< 10 nM"
>>> test_result("Cc1cccc(Cl)c1C(=O)N[C@@H](Cc1ccc(-c2cc(Cl)cn(C)c2=O)cc1)C(=O)O [Example 8]")
"< 1 nM"
>>> test_result("COc1ccc(Br)c(C(=O)N[C@@H](Cc2ccc(-c3cccn(C)c3=O)cc2)C(=O)O)c1 [Example 24]")
"< 1 nM"
>>> test_result("COCCC1(C(=O)N[C@@H](Cc2ccc(-c3cc(Cl)cn(Cc4ccccc4)c3=O)cc2)C(=O)O)CCCC1 [Example 17]")
"< 10 nM"

Numbers sourced from patent US6916933B2.
